Cited source for all entries: paper PMC11239005

- assayDetails: Single dose plasma pharmacokinetics in CD1 mice
- Assay type: in vivo, mouse
- conditionSet: male, CD1, mouse, plasma, po, 40 mg/kg, PO 40 mg/Kg, 60 min; read-out: Plasma concentration, Group A-D
measuredQuantity: concentration at 60 min (ng/mL)
Respond numerically; units are ng/mL and should not be typed.

Problem: Please look up its concentration at 60 min: Cl.Cl.N#Cc1ccc(/C=C2/C(=O)/C(=C/c3ccc(C#N)cc3)C23CCN(C(=N)N)CC3)cc1 [RA475]
Result: 29

----------
- assayDetails: Single dose plasma pharmacokinetics in CD1 mice
- Format: in vivo, mouse
- conditionSet: mouse; plasma, IV 10 mg/kg, male CD1 mice
measuredQuantity: Tmax (min)
Respond numerically; units are min and should not be typed.

Problem: Please look up its Tmax: Cl.Cl.N#Cc1ccc(/C=C2/C(=O)/C(=C/c3ccc(C#N)cc3)C23CCN(C(=N)N)CC3)cc1
Result: 4.98
